Entry source: patent US20140135310A1

# ASSAY SYSTEM: H1 histaminergic receptors (Homo sapiens, UniProt P35367)
# Construct: expressed in transfected cells; host or cells: HEK-293 cells
# Sequence (P35367 whole entry): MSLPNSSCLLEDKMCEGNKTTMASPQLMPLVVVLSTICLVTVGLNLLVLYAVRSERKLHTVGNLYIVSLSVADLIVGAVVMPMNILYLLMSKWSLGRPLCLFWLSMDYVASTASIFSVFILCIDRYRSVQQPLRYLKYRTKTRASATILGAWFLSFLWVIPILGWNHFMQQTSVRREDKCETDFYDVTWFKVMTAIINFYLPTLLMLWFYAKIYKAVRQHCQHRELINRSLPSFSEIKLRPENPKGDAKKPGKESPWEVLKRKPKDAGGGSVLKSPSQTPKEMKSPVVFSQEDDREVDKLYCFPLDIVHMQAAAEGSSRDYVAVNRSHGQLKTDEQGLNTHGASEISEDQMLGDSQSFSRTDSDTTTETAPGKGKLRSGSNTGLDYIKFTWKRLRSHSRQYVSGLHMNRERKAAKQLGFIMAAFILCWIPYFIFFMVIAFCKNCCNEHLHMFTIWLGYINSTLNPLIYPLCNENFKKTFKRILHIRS
# ASSAY: Radioligand binding assay, histaminergic H1 receptors
# MEASUREMENT SETUP: human recombinant (HEK-293 cells), [3H]pyrilamine 1 nM
Would you mind telling me the reported inhibition at 1 µM of each entry?
# number only, unit % dropped from output

Reported inhibition at 1 µM of O=S(=O)(N[C@H]1CCN(CCCc2noc3cc(F)ccc23)C1)c1ccc2cc(Cl)ccc2c1 : 64

Reported inhibition at 1 µM of O=S(=O)(N[C@H]1CCN(CCCc2noc3cc(F)ccc23)C1)c1cc2ccccc2o1 : 50

Reported inhibition at 1 µM of O=S(=O)(NC1CCN(CCCc2c[nH]c3ccc(Cl)cc23)C1)c1cccc(Cl)c1 (centres unmarked) : 79

Reported inhibition at 1 µM of COc1ccc2cc(S(=O)(=O)NC3CCN(CCCc4noc5cc(F)ccc45)C3)ccc2c1 (centres unmarked) : 69

Reported inhibition at 1 µM of O=S(=O)(NC1CCN(CCCc2noc3cc(F)ccc23)C1)c1ccc2ccccc2c1 (centres unmarked) : 57

Reported inhibition at 1 µM of O=S(=O)(NCC1CN(CCCc2noc3cc(F)ccc23)C1)c1ccc2ccccc2c1 : 45

Reported inhibition at 1 µM of O=S(=O)(NCC1CN(CCOc2cccc3c2OCCO3)C1)c1ccc(Cl)c(Cl)c1 : 42

Reported inhibition at 1 µM of O=S(=O)(NC1CCN(CCCc2c[nH]c3ccc(Cl)cc23)C1)c1cccc(F)c1 (centres unmarked) : 61

* * *

# ASSAY SYSTEM: dopaminergic receptors D2 (Homo sapiens)
# Sequence (P14416 whole entry): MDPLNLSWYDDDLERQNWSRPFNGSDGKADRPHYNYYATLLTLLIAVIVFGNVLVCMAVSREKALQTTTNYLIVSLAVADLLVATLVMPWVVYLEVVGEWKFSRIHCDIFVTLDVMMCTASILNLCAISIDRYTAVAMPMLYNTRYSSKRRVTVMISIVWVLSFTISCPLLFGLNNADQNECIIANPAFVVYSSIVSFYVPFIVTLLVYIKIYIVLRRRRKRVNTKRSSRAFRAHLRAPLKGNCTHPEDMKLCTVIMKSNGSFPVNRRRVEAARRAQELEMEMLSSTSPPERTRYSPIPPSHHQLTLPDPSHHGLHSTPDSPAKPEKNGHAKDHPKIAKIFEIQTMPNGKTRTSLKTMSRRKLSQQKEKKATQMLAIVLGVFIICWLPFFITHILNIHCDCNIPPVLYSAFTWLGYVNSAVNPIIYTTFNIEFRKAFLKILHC
# ASSAY: Radioligand binding assay, dopaminergic D2 receptors
# MEASUREMENT SETUP: binding assay, test compound 1×10^−6 M
Could you label it 1 if measured inhibition at 1 µM is 80% or higher, and -1 otherwise?

Lookup: Item O=S(=O)(NCC1CN(CCCc2noc3cc(F)ccc23)C1)c1cccc(O)c1 [Compound 149] with inhibition at 1 µM of 80% or above?
Found: 1

Lookup: Item O=S(=O)(NCC1CN(CCOc2cccc3c2OCCO3)C1)c1ccc(Cl)s1 [Compound 192] with inhibition at 1 µM of 80% or above?
Found: -1

Lookup: Item O=S(=O)(NCC1CCN(CCOc2cccc3c2OCCO3)C1)c1ccc(Cl)c(Cl)c1 (centres unmarked) [Compound 301] with inhibition at 1 µM of 80% or above?
Found: -1

Lookup: Item O=S(=O)(NCC1CCN(CCOc2nsc3ccccc23)C1)c1cccc(O)c1 (centres unmarked) [Compound 43] with inhibition at 1 µM of 80% or above?
Found: -1

Lookup: Item Cc1ccc(S(=O)(=O)NCC2CCN(CCOc3cccc4c3OCCO4)C2)cc1 (centres unmarked) [Compound 291] with inhibition at 1 µM of 80% or above?
Found: -1

Lookup: Item CC1(C)Cc2cccc(OCCN3CCC(CNS(=O)(=O)c4ccc5ccccc5c4)C3)c2O1 (centres unmarked) [Compound 114] with inhibition at 1 µM of 80% or above?
Found: -1

Lookup: Item Cc1c(S(=O)(=O)NCC2CN(CCCc3noc4cc(F)ccc34)C2)sc2ccc(Cl)cc12 [Compound 131] with inhibition at 1 µM of 80% or above?
Found: 1

Lookup: Item O=S(=O)(NCC1CCN(CCOc2cccc3ccccc23)C1)c1ccc(F)c(Cl)c1 (centres unmarked) [Compound 277] with inhibition at 1 µM of 80% or above?
Found: -1

Lookup: Item O=S(=O)(NCC1CCN(CCOc2cccc3ccccc23)C1)c1cccc(O)c1 (centres unmarked) [Compound 123] with inhibition at 1 µM of 80% or above?
Found: -1

Lookup: Item Cc1c(S(=O)(=O)N[C@H]2CCN(CCCc3noc4cc(F)ccc34)C2)sc2ccc(F)cc12 [Compound 203] with inhibition at 1 µM of 80% or above?
Found: 1

Lookup: Item O=S(=O)(NC1CCN(CCCc2c[nH]c3ccc(F)cc23)C1)c1cccc2ccccc12 (centres unmarked) [Compound 79] with inhibition at 1 µM of 80% or above?
Found: 1

Lookup: Item O=S(=O)(NCC1CN(CCCc2noc3cc(F)ccc23)C1)c1ccc(-c2ccccc2)cc1 [Compound 135] with inhibition at 1 µM of 80% or above?
Found: 1

Lookup: Item Cc1c(S(=O)(=O)NCC2CCN(CCOc3cccc4ccccc34)C2)sc2ccc(Cl)cc12 (centres unmarked) [Compound 272] with inhibition at 1 µM of 80% or above?
Found: -1

Lookup: Item O=S(=O)(NCC1CN(CCOc2cccc3c2OCCO3)C1)c1ccsc1 [Compound 191] with inhibition at 1 µM of 80% or above?
Found: -1
